Target: T1, human GIP receptor (human, UniProt P48546 22-466)
T1 sequence (looked up): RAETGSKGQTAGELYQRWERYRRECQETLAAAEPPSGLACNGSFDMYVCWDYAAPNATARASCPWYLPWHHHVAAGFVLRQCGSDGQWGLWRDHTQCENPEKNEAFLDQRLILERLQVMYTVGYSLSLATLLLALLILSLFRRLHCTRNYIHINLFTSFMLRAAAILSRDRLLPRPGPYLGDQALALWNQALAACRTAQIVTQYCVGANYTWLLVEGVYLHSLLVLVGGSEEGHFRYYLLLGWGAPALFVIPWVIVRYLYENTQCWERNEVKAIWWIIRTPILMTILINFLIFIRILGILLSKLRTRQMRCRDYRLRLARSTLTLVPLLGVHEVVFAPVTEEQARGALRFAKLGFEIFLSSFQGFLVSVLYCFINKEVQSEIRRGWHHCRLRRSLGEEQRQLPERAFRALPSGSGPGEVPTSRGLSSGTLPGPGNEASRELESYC
Test: cell-based or functional assay
Bridge positions count the residues as written; N and C are the ends. Square brackets hold non-standard residues; d marks the D form. Ends that are not written are not given here. Aib = CC(C)(N)C(=O)O
Kindly state In vitro activity compared to native-type peptide (%), vs GIP for each of the entries shown.

### Prompt Which In vitro activity compared to native-type peptide (%), vs GIP is reported for this binder? H[Aib]QGTFTSDVSSYLDGQAAKEFIAWLVKGC [triple agonist of SEQ ID NO: 1]
### Response < 0.1%

### Prompt Can you handle Y[Aib]QGTFTSDYSKYLDEKRAKEFVQWLLDHHCSSGQPPPS (bridge 16-20) [triple agonist of SEQ ID NO: 43] next?
### Response 3.7%

### Prompt What about H[Aib]QGTFTSDYSKYLDGQHAQCFVAWLLAGGGPSSGAPPPS [triple agonist of SEQ ID NO: 39] ?
### Response < 0.1%
